target: BLM (Homo sapiens, UniProt P54132)
Sequence (P54132 640-1298): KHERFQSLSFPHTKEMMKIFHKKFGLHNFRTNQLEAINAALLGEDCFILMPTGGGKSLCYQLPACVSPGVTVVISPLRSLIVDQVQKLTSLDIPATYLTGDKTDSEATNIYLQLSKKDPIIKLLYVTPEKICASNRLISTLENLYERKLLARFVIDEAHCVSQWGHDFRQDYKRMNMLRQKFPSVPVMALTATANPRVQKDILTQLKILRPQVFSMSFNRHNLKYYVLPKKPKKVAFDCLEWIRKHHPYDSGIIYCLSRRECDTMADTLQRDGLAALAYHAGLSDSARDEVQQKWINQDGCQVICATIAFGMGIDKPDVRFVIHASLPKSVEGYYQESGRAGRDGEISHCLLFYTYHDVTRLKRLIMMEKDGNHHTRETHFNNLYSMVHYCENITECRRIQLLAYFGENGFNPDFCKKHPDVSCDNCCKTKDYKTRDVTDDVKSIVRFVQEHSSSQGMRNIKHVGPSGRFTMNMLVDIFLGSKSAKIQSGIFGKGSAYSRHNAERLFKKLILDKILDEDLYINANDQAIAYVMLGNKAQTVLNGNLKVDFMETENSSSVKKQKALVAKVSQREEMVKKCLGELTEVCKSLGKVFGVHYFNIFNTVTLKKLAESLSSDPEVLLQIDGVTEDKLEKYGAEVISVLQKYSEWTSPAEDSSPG

{"chemicalStructure": "CCc1c(N2CCN(C(=O)c3ncnc(C)c3O)CC2)c(=O)n2nc(C3=CCOCC3)nc2n1CC(=O)Nc1ccc(C(F)(F)F)cc1Cl", "IC50": "> 100 µM"}

----------
Test: Compound 3 blood PK in SW48 tumour-bearing mice
Assay type: in vivo, mouse
Details: female, mouse, whole blood, oral, 150 mg/kg, 150mg/kg BID; 2 h; single mouse; read-out: Total blood concentration
Procedure: All animal studies were conducted in accordance with ethics and procedures covered by permit BS-2275 and BS-1975 issued by the Kantonales Veterinäramt Basel-Stadt and in strict adherence to guidelines of the Eidgenössisches Tierschutzgesetz and the Eidgenössische Tierschutzverordnung, Switzerland. All animal studies were approved by the internal ethics committee. All animals had access to food and water ad libitum and were identified with transponders. […]

{"compound": "CCc1c(N2CCN(C(=O)c3ncccc3O)CC2)c(=O)n2nc(C3=CCOCC3)nc2n1CC(=O)Nc1ccc(C(F)(F)F)cc1C [compound 3]", "concentration at 2 h [µM]": 10.2}
